This document collects MIC values reported for Trichophyton rubrum.
MEASURE NAME: MIC (µg/mL)

• OC(COCc1ccccc1)(Cn1ccnc1)c1ccc(Cl)cc1Cl (stereo not drawn) = 0.6
• CCCCSCC(O)(Cn1ccnc1)c1ccc(Cl)cc1Cl (stereo not drawn) [CH3-(CH2)3-S-] = 0.6
• OC(CN1CCN(Cc2ccccc2)CC1)(Cn1ccnc1)c1ccc(Cl)cc1Cl (stereo not drawn) [the 5th table, row 7] = 20

(P) OC(CSc1ccccc1)(Cn1ccnc1)c1ccc(Cl)cc1Cl (stereo not drawn)
(Q) CC(C)SCC(O)(Cn1ccnc1)c1ccc(Cl)cc1Cl (stereo not drawn)
(Q) I need your help: which of the pair P , Q has higher MIC? Give the label of your selection.
(A) P
(P: 10 µg/mL, Q: 5 µg/mL)

====

Entries below carry reported MIC on Candida albicans Ohta.
MEASURE NAME: MIC (µg/mL)

* CCCCOCC(O)(Cn1ccnc1)c1ccc(Cl)cc1Cl (stereo not shown) | 40
* OC(COCc1ccccc1)(Cn1ccnc1)c1ccc(Cl)cc1Cl (stereo not shown) | 40

(1) CC(C)CCOCC(O)(Cn1ccnc1)c1ccc(Cl)cc1Cl (stereo not shown)
(2) CCCCSCC(O)(Cn1ccnc1)c1ccc(Cl)cc1Cl (stereo not shown)
(3) CCCCCSCC(O)(Cn1ccnc1)c1ccc(Cl)cc1Cl (stereo not shown)
(Q) Thanks in advance: please rank these 3 entries by MIC, highest to lowest. Please respond by ranking the labels in the order requested.
(A) 1, 3, 2
(1: 40 µg/mL, 3: 5 µg/mL, 2: 1.25 µg/mL)

====

Quick record: MIC, Candida albicans Ohta.
MEASURE NAME: MIC (µg/mL)

Use the examples below as a reference point.
- Cc1cccc(SCC(O)(Cn2ccnc2)c2ccc(Cl)cc2Cl)c1 (stereo not shown): 0.6
- CCCCCCSCC(O)(Cn1ccnc1)c1ccc(Cl)cc1Cl (stereo not shown): 2.5
- CC(C)SCC(O)(Cn1ccnc1)c1ccc(Cl)cc1Cl (stereo not shown): 40
- COc1ccc(SCC(O)(Cn2ccnc2)c2ccc(Cl)cc2Cl)cc1 (stereo not shown): 5
- OC(CSCc1ccccc1)(Cn1ccnc1)c1ccc(Cl)cc1Cl (stereo not shown): 2.5
- OC(COCCc1ccccc1)(Cn1ccnc1)c1ccc(Cl)cc1Cl (stereo not shown): 40

(1) CN1CCN(CC(O)(Cn2ccnc2)c2ccc(Cl)cc2Cl)CC1 (stereo not shown)
(2) CCCCCCCCSCC(O)(Cn1ccnc1)c1ccc(Cl)cc1Cl (stereo not shown)
(3) OC(COc1ccccc1Cl)(Cn1ccnc1)c1ccc(Cl)cc1Cl (stereo not shown)
(4) OC(CSc1ccccc1)(Cn1ccnc1)c1ccc(Cl)cc1Cl (stereo not shown)
(5) OC(CSc1ccc(F)cc1)(Cn1ccnc1)c1ccc(Cl)cc1Cl (stereo not shown)
(Q) Order field: MIC | Direction: descending (largest first) Please list the labels according to the requested order.
(A) 1, 3, 4, 5, 2
(1: 40 µg/mL, 3: 20 µg/mL, 4: 5 µg/mL, 5: 2.5 µg/mL, 2: 1.25 µg/mL)

====

For Trichophyton rubrum, measured MIC is reported for the entries below.
MEASURE NAME: MIC (µg/mL)

Answered examples (8):
- OC(CSc1ccc(F)cc1)(Cn1ccnc1)c1ccc(Cl)cc1Cl (stereo not shown): 40
- OC(COc1ccccc1Cl)(Cn1ccnc1)c1ccc(Cl)cc1Cl (stereo not shown): 5
- CCCCCSCC(O)(Cn1ccnc1)c1ccc(Cl)cc1Cl (stereo not shown): 1.25
- OC(COCCSc1ccccc1)(Cn1ccnc1)c1ccc(Cl)cc1Cl (stereo not shown): 5
- OC(CSCc1ccccc1)(Cn1ccnc1)c1ccc(Cl)cc1Cl (stereo not shown): 5
- Cc1cccc(SCC(O)(Cn2ccnc2)c2ccc(Cl)cc2Cl)c1 (stereo not shown): 5
- CCCCCCSCC(O)(Cn1ccnc1)c1ccc(Cl)cc1Cl (stereo not shown): 0.6
- OC(COCCc1ccccc1)(Cn1ccnc1)c1ccc(Cl)cc1Cl (stereo not shown): 2.5

(1) CCCCCCCCSCC(O)(Cn1ccnc1)c1ccc(Cl)cc1Cl (stereo not shown)
(2) CCCCOCC(O)(Cn1ccnc1)c1ccc(Cl)cc1Cl (stereo not shown)
(3) OC(CSc1ccncc1)(Cn1ccnc1)c1ccc(Cl)cc1Cl (stereo not shown)
(Q) Sort these compounds on MIC so the largest reading comes first. As an answer, provide the labels arranged in the order called for.
(A) 3, 2, 1
(3: 20 µg/mL, 2: 0.6 µg/mL, 1: 0.3 µg/mL)
